# system tested: Tyrosine-protein kinase FRK (Homo sapiens) (UniProt P42685);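 note: values are mean inhibition of PTK5 (FRK) kinase activity from the GSK PKIS screening set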
# Sequence (P42685 whole entry): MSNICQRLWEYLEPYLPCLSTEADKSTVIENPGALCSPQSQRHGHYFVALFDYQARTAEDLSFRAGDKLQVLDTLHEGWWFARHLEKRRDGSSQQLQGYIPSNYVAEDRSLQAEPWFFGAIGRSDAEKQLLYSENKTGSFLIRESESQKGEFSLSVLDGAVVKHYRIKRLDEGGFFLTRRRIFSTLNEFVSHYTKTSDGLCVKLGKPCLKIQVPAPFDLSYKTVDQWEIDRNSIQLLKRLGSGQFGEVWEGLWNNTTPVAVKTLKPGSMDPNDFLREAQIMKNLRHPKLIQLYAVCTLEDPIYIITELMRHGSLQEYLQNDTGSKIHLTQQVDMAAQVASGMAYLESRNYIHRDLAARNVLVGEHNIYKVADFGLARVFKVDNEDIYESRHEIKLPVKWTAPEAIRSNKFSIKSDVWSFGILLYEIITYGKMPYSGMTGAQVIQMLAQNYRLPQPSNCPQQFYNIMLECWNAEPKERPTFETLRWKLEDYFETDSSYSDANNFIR
# condition info: at 0.1 µM
parameter: inhibition (%)
Your answer is read as %, so omit the unit and give the number.

The compound identified as Fc1ccc(-c2nn3ncccc3c2-c2ccnc(Nc3ccc4c(c3)OCCO4)n2)cc1 registered its inhibition at 5.64

The compound identified as CCn1c(-c2nonc2N)nc2c(C#CC(C)(C)O)ncc(OC3CCNCC3)c21 registered its inhibition at 0.94

The compound identified as CCn1cc(-c2ccnc3[nH]ccc23)c(-c2cccc(NC(=O)Nc3ccc(OCc4ccccc4)cc3)c2)n1 registered its inhibition at 1.32

The compound identified as COc1ccc(-c2nn3ncccc3c2-c2ccnc(Nc3ccc4c(c3)OCCO4)n2)cc1 registered its inhibition at 0.87

All figures here come from ChEMBL document CHEMBL1961873.
